Below, each entry is listed alongside its reported pKd.
- System Tested: T1, CD70 ECD (antigen immobilized on the CM5 chip) (UniProt P32970 39-193)
- T1 construct: extracellular domain; also called CD70 antigen
- T1 sequence (looked up): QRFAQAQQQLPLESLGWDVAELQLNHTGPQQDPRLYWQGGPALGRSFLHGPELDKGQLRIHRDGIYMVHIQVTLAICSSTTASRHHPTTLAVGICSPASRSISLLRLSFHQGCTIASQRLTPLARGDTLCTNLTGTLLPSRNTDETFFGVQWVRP
- Experiment: SPR (Biacore T200), CD70 ECD on CM5 chip, IgG as analyte
pKd: −log10 of the molar value.
Property Label: pKd

Binder	Reported Result
1F6 (Vorsetuzumab), reference antibody, full IgG (antibody, V domains shown, also called h1F6; h1 F6) VH: QVQLVQSGAEVKKPGASVKVSCKASGYTFTNYGMNWVRQAPGQGLKWMGWINTYTGEPTYADAFKGRVTMTRDTSISTAYMELSRLRSDDTAVYYCARDYGDYGMDYWGQGTTVTVSS VL: DIVMTQSPDSLAVSLGERATINCRASKSVSTSGYSFMHWYQQKPGQPPKLLIYLASNLESGVPDRFSGSGSGTDFTLTISSLQAEDVAVYYCQHSREVPWTFGQGTKVEIK	7.28
2D2, full IgG (antibody, V domains shown) VH: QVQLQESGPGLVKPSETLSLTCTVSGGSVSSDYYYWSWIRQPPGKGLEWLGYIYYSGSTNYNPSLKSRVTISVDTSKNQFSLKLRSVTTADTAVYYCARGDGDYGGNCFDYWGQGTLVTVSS VL: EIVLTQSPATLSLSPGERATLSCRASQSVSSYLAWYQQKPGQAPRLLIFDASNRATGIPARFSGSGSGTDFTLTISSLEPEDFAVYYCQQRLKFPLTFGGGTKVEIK	7.05
2A4P0L1, full IgG (antibody, V domains shown) VH: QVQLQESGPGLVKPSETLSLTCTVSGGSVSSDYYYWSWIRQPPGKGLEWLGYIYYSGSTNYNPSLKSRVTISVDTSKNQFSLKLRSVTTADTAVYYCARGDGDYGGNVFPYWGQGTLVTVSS VL: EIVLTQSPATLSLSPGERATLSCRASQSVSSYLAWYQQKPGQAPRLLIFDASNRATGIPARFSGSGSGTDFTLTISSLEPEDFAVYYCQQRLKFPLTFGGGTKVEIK	7.41
